Record set of DC50 for target or system KRAS G12D (Homo sapiens, UniProt P01116, G12D).
Quantity name: DC50

{"Molecule": "CCc1c(F)ccc2cc(O)cc(-c3ncc4c(N5CCC[C@@](C)(O)C5)nc(OC[C@]56CCCN5[C@@H](COc5cnc(-c7cn([C@H](C(=O)N8C[C@H](O)C[C@H]8C(=O)N[C@@H](C)c8ccc(-c9scnc9C)cc8)C(C)C)nn7)cn5)CC6)nc4c3F)c12 [Compound 159]", "Readout value": "0.0023 µM"}
{"Molecule": "CCc1c(F)ccc2cc(O)cc(-c3ncc4c(N5CCC[C@@](C)(O)C5)nc(OCC5(CN6CCC(N(C)c7ccc(-c8cn([C@H](C(=O)N9C[C@H](O)C[C@H]9C(=O)N[C@@H](C)c9ccc(-c%10scnc%10C)cc9)C(C)C)nn8)cn7)CC6)CC5)nc4c3F)c12 [Compound 154]", "Readout value": "0.0055 µM"}
{"Molecule": "CCc1c(F)ccc2cc(O)cc(-c3ncc4c(N5CCC[C@@](C)(O)C5)nc(OCC5(CN6CCN(C78CC(c9cn([C@H](C(=O)N%10C[C@H](O)C[C@H]%10C(=O)N[C@@H](C)c%10ccc(-c%11scnc%11C)cc%10)C(C)C)nn9)(C7)C8)CC6)CC5)nc4c3F)c12 [Compound 149]", "Readout value": "0.0076 µM"}
{"Molecule": "CCc1c(F)ccc2cc(O)cc(-c3ncc4c(N5CCC[C@@](C)(O)C5)nc(OCC5(CN6CCC(OCc7ccc(-c8cn([C@H](C(=O)N9C[C@H](O)C[C@H]9C(=O)N[C@@H](C)c9ccc(-c%10scnc%10C)cc9)C(C)C)nn8)cc7)CC6)CC5)nc4c3F)c12 [Compound 93]", "Readout value": "0.011 µM"}
{"Molecule": "CCc1c(F)ccc2cc(O)cc(-c3ncc4c(N5CCC[C@@](C)(O)C5)nc(OCC5(CN6CCN(CC7CCN(c8cc([C@H](C(=O)N9C[C@H](O)C[C@H]9C(=O)N[C@@H](C)c9ccc(-c%10scnc%10C)cc9)C(C)C)on8)CC7)CC6)CC5)nc4c3F)c12 [Compound 111]", "Readout value": "0.021 µM"}
{"Molecule": "CCc1c(F)ccc2cc(O)cc(-c3ncc4c(N5CCC[C@@](C)(O)C5)nc(OCC5(CN6CCC7(CC6)CC(c6cn([C@H](C(=O)N8C[C@H](O)C[C@H]8C(=O)N[C@@H](C)c8ccc(-c9scnc9C)cc8)C(C)C)nn6)C7)CC5)nc4c3F)c12 [Compound 73]", "Readout value": "0.017 µM"}
{"Molecule": "CCc1c(F)ccc2cc(O)cc(-c3ncc4c(N5CCC[C@@](C)(O)C5)nc(OCC5(CN6CCC(Nc7ccc(-c8cn([C@H](C(=O)N9C[C@H](O)C[C@H]9C(=O)N[C@@H](C)c9ccc(-c%10scnc%10C)cc9)C(C)C)nn8)cn7)CC6)CC5)nc4c3F)c12 [Compound 152]", "Readout value": "0.027 µM"}

* * *

# Test system: AGS
# Method notes: Cell proliferation experiment (CellTiter-Glo)
# Format: cell-based
# Settings: Homo sapiens, AGS, 96 h, read-out: IC50(nM) AGS
This listing pairs molecules with measured IC50.

{"Compound smiles": "CCc1c(F)ccc2cc(O)cc(-c3ncc4c(N5CCC[C@@](C)(O)C5)nc(OCC5(CN6CCC(Oc7cc([C@H](C(=O)N8C[C@H](O)C[C@H]8C(=O)N[C@@H](C)c8ccc(-c9scnc9C)cc8)C(C)C)on7)CC6)CC5)nc4c3F)c12", "IC50, nM": 13}
{"Compound smiles": "CCc1c(F)ccc2cc(O)cc(-c3ncc4c(N5CCC[C@@](C)(O)C5)nc(OC[C@]56CCCN5[C@@H](COc5ccc(-c7cn([C@H](C(=O)N8C[C@H](O)C[C@H]8C(=O)N[C@@H](C)c8ccc(-c9scnc9C)cc8)C(C)C)nn7)cn5)CC6)nc4c3F)c12", "IC50, nM": 19}
